test: Cytotoxicity, inhibition of CEM/TK– cell proliferation; format: cell-based; conditions: human, CEM/TK– cells (CD4+ T-cells), read-out: toxicity CC50
reported.endpoint: CC50 (µM)
Numbers only; they are read as µM.

// field: CC50; key: CCCCCCCCCCCCCCCCCCOP(=O)(OCCCCCCCCCCCCCCCCCC)OP(=O)(O)OP(=O)(O)OP(=O)(O)OC[C@@H]1C=C[C@H](n2cc(C)c(=O)[nH]c2=O)O1 [4c, δ-(Alkyl-C18; alkyl-C18)-d4T4P] ; value = 84.1

Given item CCCCCCCCCCCCCCCCCCP(=O)(OCc1ccc(OC(=O)CCCC)cc1)OP(=O)(O)OP(=O)(O)OP(=O)(O)OC[C@@H]1C=C[C@H](n2cc(C)c(=O)[nH]c2=O)O1 (some centres unmarked) [compound 7, δ-(AB-C4)-δ-C-(alkyl-C18)-d4T4P] , the value recorded as its CC50 is 36.9

Entry under test: CCCCCCCCCC(=O)Oc1ccc(COP(=O)(OCc2ccc(OC(=O)CCCCCCCCC)cc2)OP(=O)(O)OP(=O)(O)OP(=O)(O)OC[C@@H]2C=C[C@H](n3cc(C)c(=O)[nH]c3=O)O2)cc1 [compound 8, δ-(AB-C9; AB-C9)-d4T4P] . Its CC50 was 50

###

assay: Chemical hydrolysis in aqueous buffers (PBS pH 7.3 / 8.0, citrate buffer pH 2.0), RP18-HPLC; assay type: physicochemical; details: phosphate buffered saline; PBS, pH 8.0, 37 °C; read-out: PBS pH 8.0 t1/2 (converted)
reported.endpoint: half-life at 1.9 mM (h)
Just the number in h, nothing appended.

Documented half-life at 1.9 mM of CCCCCCCCCCCCCCCCCCOP(=O)(OCc1ccc(OC(=O)CCCC)cc1)OP(=O)(O)OP(=O)(O)OP(=O)(O)OC[C@@H]1C=C[C@H](n2cc(C)c(=O)[nH]c2=O)O1 (some centres unmarked) : 99

Data point: CCCCCCCCCC(=O)Oc1ccc(COP(=O)(OCc2ccc(OC(=O)CCCCCCCCC)cc2)OP(=O)(O)OP(=O)(O)OC[C@@H]2C=C[C@H](n3cc(C)c(=O)[nH]c3=O)O2)cc1 [1a, γ-(AB-C9; AB-C9)-d4TTP, reference compound] ; half-life at 1.9 mM = 68

###

test system: pig liver esterase (PLE); assay: Enzymatic hydrolysis with pig liver esterase (PLE); format: in vitro ADME; details: pig liver esterase in phosphate buffer, PLE in phosphate buffer pH 7.3, 37 °C, read-out: PLE t1/2 (converted)
reported.endpoint: half-life at 0.45 mM (min)
Answer with a number only, understood to be in min.

Documented half-life at 0.45 mM of CCCCCCCCCC(=O)Oc1ccc(COP(=O)(OCc2ccc(OC(=O)CCCCCCCCC)cc2)OP(=O)(O)OP(=O)(O)OP(=O)(O)OC[C@@H]2C=C[C@H](n3cc(C)c(=O)[nH]c3=O)O2)cc1 : 4.2

###

System: HIV-2 (ROD)
Assay: Anti-HIV replication assay, HIV-2 (ROD) in thymidine kinase-deficient CEM/TK– cells
Format: cell-based
Conditions: CC50/EC50, HIV-2 (ROD) in CEM/TK– cells
Procedure: Inhibition of HIV-1(HE)- and HIV-2(ROD)-induced cytopathogenicity in wild-type CEM/0 CEM CD4^+ T-cells and thymidine kinase-deficient CEM/TK^– cell cultures was measured in microtiter 96-well plates containing ∼3 × 10^5 CEM cells/mL infected with 100 CCID50 of HIV per milliliter and containing appropriate dilutions of the test compounds. […]
reported.endpoint: selectivity index (SI)
Lab note: record just the number, no unit beside it.

The recorded selectivity index (SI) for entry CCCCCCCCCCCCOP(=O)(OCCCCCCCCCCCC)OP(=O)(O)OP(=O)(O)OP(=O)(O)OC[C@@H]1C=C[C@H](n2cc(C)c(=O)[nH]c2=O)O1 equals 2927

Recorded result, CCCCCCCCCC(=O)Oc1ccc(COP(=O)(OCc2ccc(OC(=O)CCCCCCCCC)cc2)OP(=O)(O)OP(=O)(O)OC[C@@H]2C=C[C@H](n3cc(C)c(=O)[nH]c3=O)O2)cc1 [1a, γ-(AB-C9; AB-C9)-d4TTP, reference compound] , selectivity index (SI): 172

# selectivity index (SI) of CCCCCCCCCCCCCCCCCCOP(=O)(OCC(CC)CCCC)OP(=O)(O)OP(=O)(O)OP(=O)(O)OC[C@@H]1C=C[C@H](n2cc(C)c(=O)[nH]c2=O)O1 (stereo partly drawn) = 114

# selectivity index (SI) (compound: CCCCCCCCCC(=O)Oc1ccc(COP(=O)(OCc2ccc(OC(=O)CCCCCCCCC)cc2)OP(=O)(O)OP(=O)(O)OP(=O)(O)OC[C@@H]2C=C[C@H](n3cc(C)c(=O)[nH]c3=O)O2)cc1 ) is 11

Entry CCCCCCCCCCCCCCCCOC(=O)Oc1ccc(COP(=O)(OCc2ccc(OC(=O)CCCC)cc2)OP(=O)(O)OP(=O)(O)OP(=O)(O)OC[C@@H]2C=C[C@H](n3cc(C)c(=O)[nH]c3=O)O2)cc1 (stereo partly drawn) — recorded selectivity index (SI) = 5

Lookup result for CCCCCCCCCCCCCCCCCCOP(=O)(OCc1ccc(OC(=O)CCCC)cc1)OP(=O)(O)OP(=O)(O)OP(=O)(O)OC[C@@H]1C=C[C@H](n2cc(C)c(=O)[nH]c2=O)O1 (stereo partly drawn) ; measured selectivity index (SI): 813

The compound identified as CCCCCCCCCCCCCCCCCCOP(=O)(OCCCCCCCCCCCCCCCCCC)OP(=O)(O)OP(=O)(O)OP(=O)(O)OC[C@@H]1C=C[C@H](n2cc(C)c(=O)[nH]c2=O)O1 registered its selectivity index (SI) at 13

The compound listed as CCCCCCCCCCCCCCCCCCP(=O)(OCC(CC)CCCC)OP(=O)(O)OP(=O)(O)OP(=O)(O)OC[C@@H]1C=C[C@H](n2cc(C)c(=O)[nH]c2=O)O1 (stereo partly drawn) has a reported selectivity index (SI) of 312

Lookup result for CCCCCCCCCCCCCCCCCCP(=O)(O)OP(=O)(O)OP(=O)(O)OP(=O)(O)OC[C@@H]1C=C[C@H](n2cc(C)c(=O)[nH]c2=O)O1 ; measured selectivity index (SI): 30

Reported selectivity index (SI) ( CCCCCCCCCCCCCCCCCCOP(=O)(OCCCC)OP(=O)(O)OP(=O)(O)OP(=O)(O)OC[C@@H]1C=C[C@H](n2cc(C)c(=O)[nH]c2=O)O1 (stereo partly drawn) ) = 260

###

assay: Chemical hydrolysis in aqueous buffers (PBS pH 7.3 / 8.0, citrate buffer pH 2.0), RP18-HPLC; assay type: physicochemical; details: phosphate buffered saline; 25 mM PBS, pH 7.3, 37 °C; read-out: PBS pH 7.3 t1/2 (converted)
Provide the recorded half-life at 1.9 mM for the entries that follow.
Give the value, in units of days, as a plain number.

Form field half-life at 1.9 mM, entry CCCCOP(=O)(OCCCC)OP(=O)(O)OP(=O)(O)OP(=O)(O)OC[C@@H]1C=C[C@H](n2cc(C)c(=O)[nH]c2=O)O1 : 6.96

Entry Cc1cn([C@H]2C=C[C@@H](COP(=O)(O)OP(=O)(O)OP(=O)(O)OP(=O)(O)O)O2)c(=O)[nH]c1=O ; half-life at 1.9 mM = 22.2

Record CCCCCCCCCCCCCCCCOC(=O)Oc1ccc(COP(=O)(OCc2ccc(OC(=O)CCCC)cc2)OP(=O)(O)OP(=O)(O)OP(=O)(O)OC[C@@H]2C=C[C@H](n3cc(C)c(=O)[nH]c3=O)O2)cc1 (some centres unmarked) . Reported half-life at 1.9 mM: 1.04

###

test: Cytotoxicity, inhibition of CEM cell proliferation; format: cell-based; settings: human, CEM cells (CD4+ T-cells), read-out: toxicity CC50
For each entry below, report its CC50 value.
State the answer as a number, implicitly in µM.

// recorded CC50 for CCCCCCCCCCCCCCCCOC(=O)Oc1ccc(COP(=O)(OCc2ccc(OC(=O)CCCC)cc2)OP(=O)(O)OP(=O)(O)OP(=O)(O)OC[C@@H]2C=C[C@H](n3cc(C)c(=O)[nH]c3=O)O2)cc1 (stereo partly drawn) : 76.8

The compound identified as CCCCCCCCCCCCCCCCCCP(=O)(OCc1ccc(OC(=O)CCCC)cc1)OP(=O)(O)OP(=O)(O)OP(=O)(O)OC[C@@H]1C=C[C@H](n2cc(C)c(=O)[nH]c2=O)O1 (stereo partly drawn) registered its CC50 at 39.4

Looking up CCCCCCCCCC(=O)Oc1ccc(COP(=O)(OCc2ccc(OC(=O)CCCCCCCCC)cc2)OP(=O)(O)OP(=O)(O)OP(=O)(O)OC[C@@H]2C=C[C@H](n3cc(C)c(=O)[nH]c3=O)O2)cc1 , I see its CC50 listed as 45

What the record says about CCCCCCCCCCCCCCCCCCOP(=O)(OCCCC)OP(=O)(O)OP(=O)(O)OP(=O)(O)OC[C@@H]1C=C[C@H](n2cc(C)c(=O)[nH]c2=O)O1 (stereo partly drawn) : CC50 is 43.9
